molecular target: T1, cell surface human mesothelin (MSLN) (human, UniProt Q13421 296-598); assay: flow cytometry, NCI-H226 cells
T1 construct: whole, on cells; also called cell surface MSLN
T1 sequence (Q13421 other isoform, or with tags, fused parts or gaps limits assumed): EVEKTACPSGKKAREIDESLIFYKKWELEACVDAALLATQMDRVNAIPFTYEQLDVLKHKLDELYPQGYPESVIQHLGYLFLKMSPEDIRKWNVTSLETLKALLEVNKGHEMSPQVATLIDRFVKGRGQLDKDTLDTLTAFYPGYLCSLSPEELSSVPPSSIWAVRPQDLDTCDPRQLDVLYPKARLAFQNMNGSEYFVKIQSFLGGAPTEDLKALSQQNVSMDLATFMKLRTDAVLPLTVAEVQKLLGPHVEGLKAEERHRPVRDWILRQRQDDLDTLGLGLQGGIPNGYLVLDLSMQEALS
pEC50: −log10 of the molar value.
Quick reference for pEC50 among some binders
reported metric: pEC50

binder	reported metric	value reported
FS22-053-008-AA/FS28-256 (bispecific antibody, human IgG1, kappa, L234A L235A, V domains shown) VH: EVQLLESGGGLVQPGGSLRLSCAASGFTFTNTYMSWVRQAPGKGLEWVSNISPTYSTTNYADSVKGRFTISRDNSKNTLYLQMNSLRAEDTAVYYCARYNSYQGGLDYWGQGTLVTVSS VL: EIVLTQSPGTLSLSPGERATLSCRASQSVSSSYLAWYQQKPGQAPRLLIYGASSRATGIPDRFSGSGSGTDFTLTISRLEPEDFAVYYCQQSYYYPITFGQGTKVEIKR	pEC50	7.80
FS22-053-008-AA/FS28-256-005 mAb^2 (bispecific antibody, human IgG1, kappa, L234A L235A, V domains shown) VH: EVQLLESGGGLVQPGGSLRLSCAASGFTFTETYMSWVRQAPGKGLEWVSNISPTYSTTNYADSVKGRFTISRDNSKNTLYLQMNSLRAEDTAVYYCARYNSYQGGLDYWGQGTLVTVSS VL: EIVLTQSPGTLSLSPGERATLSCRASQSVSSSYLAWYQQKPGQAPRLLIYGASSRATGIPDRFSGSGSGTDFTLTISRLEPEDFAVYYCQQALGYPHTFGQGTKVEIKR	pEC50	8.28
FS22-053-008-AA/FS28-256-021 mAb^2 (bispecific antibody, human IgG1, kappa, L234A L235A, V domains shown) VH: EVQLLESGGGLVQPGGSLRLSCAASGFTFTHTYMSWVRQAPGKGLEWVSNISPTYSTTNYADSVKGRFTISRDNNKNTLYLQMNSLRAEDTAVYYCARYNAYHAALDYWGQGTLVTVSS VL: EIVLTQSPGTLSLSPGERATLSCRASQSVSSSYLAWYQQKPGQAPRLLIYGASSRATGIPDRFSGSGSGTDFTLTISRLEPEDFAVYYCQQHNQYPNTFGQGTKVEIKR	pEC50	8.48
FS22-053-008-AA/FS28-256-014 mAb^2 (bispecific antibody, human IgG1, kappa, L234A L235A, V domains shown) VH: EVQLLESGGGLVQPGGSLRLSCAASGFTFTDTYMSWVRQAPGKGLEWVSNISPTYSTTNYADSVKGRFTISRDNSKNTLYLQMNSLRAEDTAVYYCARYNAYAAGLDYWGQGTLVTVSS VL: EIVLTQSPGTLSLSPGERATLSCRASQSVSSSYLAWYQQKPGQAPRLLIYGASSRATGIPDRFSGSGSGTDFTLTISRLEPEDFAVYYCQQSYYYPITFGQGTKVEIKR	pEC50	8.51
